system: KM12 colon; assay: NCI tumour cell line growth inhibition, 48 h; in the data active means GI50 below about 0.43 µM; inactive means the rest
Possible outcomes: active, inactive

# COMPOUND, TARGET_ENTITY, CLASS_NAME
rows = [
    ("O=c1oc2ccc(F)cc2c(=O)n1-c1ccc(Br)cc1F", "KM12 colon", "inactive"),
    ("CCC(=O)c1cc([N+](=O)[O-])c(Br)s1", "KM12 colon", "inactive"),
    ("COc1ccc(-c2nc3c(c(=O)n2C(C)=O)C(c2ccc(Cl)cc2)c2sc4c(Cl)cccc4c2O3)cc1 (stereo not given)", "KM12 colon", "active"),
    ("CC12OC(C(=O)C13CCC3)C1C(=O)c3ccccc3C(=O)C12 (stereo not given)", "KM12 colon", "inactive"),
    ("Nc1ccn([C@@H]2C(F)=C(CO)[C@@H](O)[C@H]2O)c(=O)n1", "KM12 colon", "inactive"),
]

====

tested on: UACC-257 melanoma; assay: NCI tumour cell line growth inhibition, 48 h
METRIC: TGI

# MOLECULE, TARGET_ENTITY, READING
records = [
    ("CC(=O)O[C@H]1C(=O)N(c2cc3c4ccccc4ccc3c3ccccc23)[C@@H]1c1ccccc1", "UACC-257 melanoma", "> 100 µM"),
    ("COc1cc2cc(C(=O)N3CC(CCl)c4c3cc([N+](C)(C)Cc3ccc([N+](=O)[O-])n3C)c3ccccc43)[nH]c2c(OC)c1OC (centres undefined)", "UACC-257 melanoma", "5.4 µM"),
    ("CC1(C)OC(COCCOCCCCCO)C(COCCOCCCCCO)O1 (centres undefined)", "UACC-257 melanoma", "> 100 µM"),
    ("COC(=O)/C=C/c1ccc2c(c1)CC1(Cc3ccccc3C1)C2", "UACC-257 melanoma", "> 100 µM"),
    ("NC(=O)c1c[se]c(C2OC(COP(=O)(O)CP(=O)(O)OCC3OC(n4cnc5c(N)ncnc54)C(O)C3O)C(O)C2O)n1 (centres undefined)", "UACC-257 melanoma", "> 100 µM"),
    ("O=C(Nc1cc(S(=O)(=O)c2ccc(Cl)cc2)ccc1Cl)c1cc(I)cc(I)c1O", "UACC-257 melanoma", "42.1 µM"),
    ("COc1ccc(C2NCCc3c2[nH]c2ccccc32)cc1 (centres undefined)", "UACC-257 melanoma", "> 100 µM"),
    ("Cn1cnc([N+](=O)[O-])c1Sc1nc(N)nc2nc[nH]c12", "UACC-257 melanoma", "> 100 µM"),
    ("Cc1ccc(/C=C2\\CN(C)CC3C2=NC(=S)NC3c2ccc(C)cc2)cc1 (centres undefined)", "UACC-257 melanoma", "> 100 µM"),
]

====

Below, each entry is listed alongside its reported TGI.
system: SK-MEL-2 melanoma; experiment: NCI tumour cell line growth inhibition, 48 h

# COMPOUND, TGI
rows = [
    ("C/C(=N/O)c1ccc2c(c1)C(=NO)c1cc(/C(C)=N/O)ccc1-2", "40.1 µM"),
    ("Cc1cc([N+](=O)[O-])c(S(=O)(=O)c2ccccc2)c([N+](=O)[O-])c1", "47.6 µM"),
    ("CCN(CC)CCCCC1CCN(CC(=O)N2c3ccccc3NC(=O)CC2C)CC1 (stereo unspecified)", "> 100 µM"),
    ("O=C(O)[C@@H]1CCCC[C@@H]1C(=O)N(C1CCCCC1)C1CCCCC1", "> 100 µM"),
    ("COc1ccc(-c2cc(/C=C/C(=O)c3cc(OC)c(OC)c(OC)c3)[nH]n2)cc1OC", "7.7 µM"),
    ("NC(=S)N/N=C\\CC(O)(C(F)(F)F)C(F)(F)F", "> 10 µM"),
    ("COC(=O)c1c(OC)cc2cc3c(c(O)c2c1C)C(=O)C1(O)C(=O)C=C(OC)C(OC(=O)CC(C)N)=C1C3=O (stereo unspecified)", "> 100 µM"),
    ("CCc1cccc(CC)c1/C=C/c1cncc(C(=O)NC)c1", "> 22.6 µM"),
    ("c1ccc(OCCSCCCCCCCCCCSCCOc2ccccc2)cc1", "> 100 µM"),
    ("c1ccc([P+](c2ccccc2)(c2ccccc2)c2ccc([P+](c3ccccc3)(c3ccccc3)c3ccccc3)cc2)cc1", "> 100 µM"),
    ("Cc1ccccc1NC(=O)C(=O)CC(=O)c1ccc([N+](=O)[O-])cc1", "> 100 µM"),
    ("CCN(CC)CCN(C)CCc1ccc(Br)cc1", "> 100 µM"),
    ("CCOc1ccc(-c2oc(/C=N/NS(=O)(=O)c3ccc(C)cc3)c([N+](=O)[O-])c2-c2ccc(OCC)cc2)cc1", "44.8 µM"),
    ("Nc1ncc(/C=N/O)c(NCC2(CO)CC(CCc3ccccc3)C2)n1 (stereo unspecified)", "39.2 µM"),
    ("CCOC(=O)c1nc2ccccc2nc1NCc1ccc(Cl)cc1Cl", "> 100 µM"),
    ("COC(=O)C(C(=O)C(=O)NC1Nc2ccc(C)cc2S1)c1nc2ccc(Cl)cc2[nH]c1=O (stereo unspecified)", "> 100 µM"),
    ("C=CC(=O)Nc1cccc(Nc2nc(Nc3ccc(OCCOC(F)F)cc3)ncc2F)c1", "6.82 µM"),
    ("O=C(O)C1C2C=CC(O2)C1C(=O)Nc1ncccn1 (stereo unspecified)", "> 100 µM"),
    ("O=C(/C=C/c1ccco1)c1cccc(C(=O)/C=C/c2ccco2)n1", "> 58.6 µM"),
    ("COC(=O)C(NC(=O)CSc1nnc(COc2ccc(Cl)cc2)n1-c1ccccc1)C(C)C (stereo unspecified)", "35.1 µM"),
    ("Fc1c[c-]c(-c2ccccn2)c(F)c1.[CH3-].[Pt+2].c1ccc(P(C[PH+](c2ccccc2)c2ccccc2)c2ccccc2)cc1", "1.89 µM"),
]
